# System: CAL-12T
# experiment: relative viability (nuclei count vs DMSO), 5 days (fraction); higher = more cells survive
# experimental parameters: first compound 4 µM
measurement label: relative viability
Give only the figure.

Take a look at these entries with their results.
molecule | relative viability
Clc1ccc(Nc2nnc(Cc3ccncc3)c3ccccc23)cc1 [Vatalanib] + Cc1nc(Nc2ncc(C(=O)Nc3c(C)cccc3Cl)s2)cc(N2CCN(CCO)CC2)n1 [Dasatinib] (partner 0.075 µM) | 0.374
C[C@@H]1CN(CC(=O)Nc2ccc3c(c2)Cc2cccc(-c4cc(=O)cc(N5CCOCC5)o4)c2S3)C[C@H](C)O1 + COc1cc2c(Oc3ccc(NC(=O)C4(C(=O)Nc5ccc(F)cc5)CC4)cc3F)ccnc2cc1OCCCN1CCOCC1 [Foretinib] (partner 0.25 µM) | 0.764
Clc1ccc(Nc2nnc(Cc3ccncc3)c3ccccc23)cc1 [Vatalanib] + CCNC(=O)c1noc(-c2cc(C(C)C)c(O)cc2O)c1-c1ccc(CN2CCOCC2)cc1 [Luminespib] (partner 0.01 µM) | 0.513

Q) Param item = COc1cc(N2CCC(C(N)=O)CC2)ccc1Nc1nc(N)c(Cl)c(Nc2ccccc2S(=O)(=O)C(C)C)n1 [HG-5-88-01] + NC(=O)Nc1cc(-c2cccc(F)c2)sc1C(=O)N[C@H]1CCCNC1 [AZD7762] (partner 0.2 µM) ; retrieve measured relative viability.
A) 0.399

Q) Also Clc1ccc(Nc2nnc(Cc3ccncc3)c3ccccc23)cc1 [Vatalanib] + NC(=O)Nc1cc(-c2cccc(F)c2)sc1C(=O)N[C@H]1CCCNC1 [AZD7762] (partner 0.2 µM) , if possible.
A) 0.574

Q) Consider next the molecule COc1cc(N2CCC(C(N)=O)CC2)ccc1Nc1nc(N)c(Cl)c(Nc2ccccc2S(=O)(=O)C(C)C)n1 [HG-5-88-01] + Nc1nc2[nH]cc(CCc3ccc(C(=O)N[C@@H](CCC(=O)O)C(=O)O)cc3)c2c(=O)[nH]1 [Pemetrexed] (partner 0.2 µM) in the same way.
A) 0.754

* * *

Recorded relative viability, one value per entry.
# Tested on: EBC-1
# experiment: relative viability (nuclei count vs DMSO), 5 days (fraction); higher = more cells survive
# experimental parameters: first compound 0.04 µM
Quick one: just the number, no unit, thanks!

Some solved entries appear below for comparison.
compound | relative viability
Clc1ccc(Nc2nnc(Cc3ccncc3)c3ccccc23)cc1 [Vatalanib] + O=C(c1cc(Cc2n[nH]c(=O)c3ccccc23)ccc1F)N1CCN(C(=O)C2CC2)CC1 [Olaparib] (partner 8 µM) | 0.761
Clc1ccc(Nc2nnc(Cc3ccncc3)c3ccccc23)cc1 [Vatalanib] + CC(C)C[C@H](NC(=O)[C@H](Cc1ccccc1)NC(=O)c1cnccn1)B(O)O [Bortezomib] (partner 0.002 µM) | 0.489
Clc1ccc(Nc2nnc(Cc3ccncc3)c3ccccc23)cc1 [Vatalanib] + COc1cc2c(Oc3ccc(NC(=O)C4(C(=O)Nc5ccc(F)cc5)CC4)cc3F)ccnc2cc1OCCCN1CCOCC1 [Foretinib] (partner 0.25 µM) | 0.111

Could you now consider this next compound?
Q) // query relative viability value for entry C[C@@H]1CN(CC(=O)Nc2ccc3c(c2)Cc2cccc(-c4cc(=O)cc(N5CCOCC5)o4)c2S3)C[C@H](C)O1 + CC1(C)CCC(c2ccc(Cl)cc2)=C(CN2CCN(c3ccc(C(=O)NS(=O)(=O)c4ccc(N[C@H](CCN5CCOCC5)CSc5ccccc5)c(S(=O)(=O)C(F)(F)F)c4)cc3)CC2)C1 [Navitoclax] (partner 0.5 µM)
A) 0.405
